B1: TRIM55 (parent)
chain: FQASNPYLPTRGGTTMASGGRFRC

Variants of: B1
method notes: protein stability index of a GFP-peptide fusion (GPS, HEK-293T) (PSI 1-6); higher = more stable;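 also: lentivirally expressed fusions sorted by FACS into six bins by GFP to DsRed ratio, PSI derived from sequencing read proportions per bin multiplied by bin number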
measurement conditions: c terminus: a fixed tail appended
# if value of protein stability index reaches 2, tag Yes; if it stays below, tag No

# var, cat
rows = [
    ("A17I", "No"),
    ("N5E", "Yes"),
    ("A3M", "No"),
    ("R23L", "Yes"),
    ("R11I", "Yes"),
    ("R23S", "No"),
    ("Y7H", "Yes"),
    ("F22S", "No"),
    ("C24L", "No"),
    ("F1T", "Yes"),
    ("C24H", "Yes"),
    ("P9S", "No"),
    ("R23Y", "Yes"),
    ("T14Q", "Yes"),
    ("G20L", "Yes"),
    ("G12L", "Yes"),
    ("F1W", "Yes"),
    ("F22K", "Yes"),
    ("R21H", "No"),
    ("P6T", "No"),
    ("M16L", "No"),
    ("C24A", "Yes"),
    ("R23Q", "No"),
    ("L8R", "Yes"),
    ("S4M", "Yes"),
    ("M16G", "Yes"),
    ("C24P", "No"),
    ("G13A", "No"),
    ("G12M", "No"),
    ("F1V", "Yes"),
    ("T14K", "Yes"),
    ("F22H", "Yes"),
    ("F1N", "Yes"),
    ("G13T", "No"),
    ("G12Q", "No"),
    ("A17T", "No"),
    ("G20N", "No"),
    ("T10I", "No"),
    ("P6I", "No"),
    ("N5K", "No"),
    ("G12D", "Yes"),
    ("G13R", "No"),
    ("G19Y", "Yes"),
    ("G12V", "Yes"),
    ("G20Y", "No"),
    ("C24S", "No"),
    ("R11V", "No"),
    ("R21D", "No"),
    ("G20K", "Yes"),
    ("T15C", "No"),
    ("Q2P", "No"),
    ("F1G", "Yes"),
    ("T10P", "Yes"),
    ("C24Q", "Yes"),
    ("T14L", "Yes"),
    ("Q2G", "No"),
    ("M16Q", "No"),
    ("T15Y", "No"),
    ("R21L", "Yes"),
    ("T10C", "Yes"),
    ("G12P", "No"),
    ("Q2W", "Yes"),
    ("Q2I", "Yes"),
    ("G19R", "No"),
    ("P6V", "Yes"),
    ("S18C", "No"),
    ("R11C", "Yes"),
    ("P6G", "Yes"),
    ("F22Q", "Yes"),
    ("Y7I", "Yes"),
    ("S18E", "Yes"),
    ("R21P", "Yes"),
    ("R11L", "Yes"),
    ("P9I", "No"),
    ("P6Y", "Yes"),
    ("P6W", "No"),
    ("G20T", "No"),
    ("R21N", "Yes"),
    ("Y7K", "Yes"),
    ("S18V", "No"),
    ("S18L", "Yes"),
    ("A3H", "No"),
    ("T10R", "No"),
    ("A17S", "Yes"),
    ("G19W", "No"),
    ("S18R", "Yes"),
]
